- System Name: T1, 4H1636-AA
- T1 chain: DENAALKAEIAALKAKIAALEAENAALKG
- Method Summary: two-hybrid library CCmax;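 note: natural log of median RNA to DNA barcode read ratio; higher means stronger binding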
- Applied Conditions: mean of both orientations
Property Measured: interaction score

// below: answered binders
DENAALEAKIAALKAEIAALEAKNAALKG [4H1352-AA]
-1.13
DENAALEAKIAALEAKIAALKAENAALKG [4H1324-AA]
-0.551
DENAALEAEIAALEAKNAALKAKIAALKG [4H1086-AA]
-1.62
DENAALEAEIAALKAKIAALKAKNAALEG [4H1135-AA]
-0.92
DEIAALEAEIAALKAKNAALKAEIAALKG [4H122-AA]
-1.44

Record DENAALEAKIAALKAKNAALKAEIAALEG [4H1401-AA] . Reported interaction score: -1.81

Summary for this binder, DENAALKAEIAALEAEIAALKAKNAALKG [4H1552-AA] : interaction score is 0.254

Summary for this binder, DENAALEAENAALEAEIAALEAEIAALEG [4H1153-AA] : interaction score is -1.31

Values from paper PMC10397247
